# Assay Text: gradient 5% acetonitrile 3 min, to 50% in 2 min, to 85% in 15 min, held 3 min, 100 µL/min
# Assay Conditions: column: Zorbax Extend-C18 2.1 x 50 mm; eluents: water / acetonitrile, 0.1% formic acid
The following molecules are shown together with reported RP-LC retention time values.
Assay Readout: RP-LC retention time (s)

1. O=C(CCC(=O)N1CC2CCCN2c2ccccc21)NCc1ccc2c(c1)OCO2 (stereo not drawn) : 855
2. CN(CCCNC(=O)C1CCc2nc(N3CCCC3)ncc2C1)c1ccccc1 (stereo not drawn) : 560
3. O=C(NCC1COc2ccccc2O1)c1cc(-c2cccnc2)nc2ccccc12 (stereo not drawn) : 760
4. CN(Cc1nc2cc(C(=O)N3CCCC3)ccc2n1C)C(=O)Nc1ccc(Cl)cc1 : 654
5. CCCn1cc(CCNC(=O)Nc2ccc3c(c2)OCCO3)c2cccnc21 : 704
6. CCc1nc(-c2ccc(S(=O)(=O)N3CCC(C(=O)Nc4ccc5c(c4)OCCO5)CC3)cc2)no1 : 929
7. Cc1nc2cccnc2n1CC1CCCN(S(=O)(=O)c2cc(F)ccc2F)C1 (stereo not drawn) : 703
8. Cc1nnc(NC(=O)CCc2csc(NC(=O)c3ccco3)n2)s1 : 630
9. CCOC(=O)c1sc(NC(=O)C2CCCN(S(C)(=O)=O)C2)nc1-c1ccccc1 (stereo not drawn) : 863
10. CCCNc1cc(N2CCC(CCC(=O)NCc3ccccc3F)CC2)ncn1 : 680
11. OC[C@H]1O[C@@H](n2cnc3c(NC4CCCC4)nc(Cl)nc32)[C@@H](O)C1O (stereo partly drawn) : 713
12. COc1ncc(C(=O)Nc2ccc(F)c(Cl)c2)c(C)n1 : 825
13. O=C(NCC1CCOCC1)Nc1ccc(C(F)(F)F)cc1 : 734
